Assay: chemical genetic growth profiling, strain panel (AID 1159580);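 note: tested at 20 µM; growth read once vehicle control cultures reached saturation at 30 °C; 1 = growth at the plate median or of vehicle wells; lower values mean less growth of the strain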
Details: S. cerevisiae deletion strains, growth OD, locus YNL209W, strain ssb2, stronger effect = lower value
Screen size: about 5,500 compounds; about 2,000 (36%) were called active. Inconclusive results (about 18%) are left out. The list shows a part of the results.
Measured normalized growth of individual entries
A bare number is all that is needed in reply.

Using the record for Clc1ccc(C(Cn2ccnc2)OCc2ccsc2Cl)c(Cl)c1 (stereo not drawn) , report its normalized growth.
0.0596

Using the record for `Cc1cc(CC(=O)O)n(C)c1C(=O)c1ccc(Cl)cc1` , report its normalized growth.
1.05

Using the record for CC(=O)OCC(=O)[C@@]1(O)CCC2C3CCC4=CC(=O)C=CC4(C)C3[C@@H](O)C[C@@]21C (stereo partly drawn) , report its normalized growth.
1

Using the record for `Nc1nc(F)nc2c1ncn2[C@@H]1O[C@H](COP(=O)(O)O)[C@@H](O)[C@@H]1O` , report its normalized growth.
1

Using the record for Cc1cccc(C)c1NC(=O)C1CCCCN1C (stereo not drawn) , report its normalized growth.
0.987

Using the record for `NC(N)=NCCCCN=C(N)N` , report its normalized growth.
1.01

Using the record for CC(C)=CC1C(C(=O)OCc2cccc(Oc3ccccc3)c2)C1(C)C (stereo not drawn) , report its normalized growth.
0.998

Using the record for `Cc1onc(-c2ccccc2)c1-c1ccc(S(N)(=O)=O)cc1` , report its normalized growth.
0.994

Further cases:
Using the record for CC1CCC(NC(=O)N(CCCl)N=O)CC1 (stereo not drawn) , report its normalized growth.
0.798

Using the record for CCCCC(=O)O[C@]1(C(=O)CO)CCC2C3CCC4=CC(=O)CC[C@]4(C)C3[C@@H](O)C[C@@]21C (stereo partly drawn) , report its normalized growth.
0.98
